Assay read-out pIC50 on Human MMP17 (Homo sapiens); records merged from the literature.
pIC50: −log10 of the molar value.
property label: pIC50

Cc1cccn(CC2(c3ccc(Cc4ccc(F)cc4)cc3)NC(=O)NC2=O)c1=O (centres unmarked) : 4.80
COCc1cc(COc2ccc(S(=O)(=O)CC(C=C3CCC(=NO)CC3)N(O)C=O)cc2)cc(C)n1 (centres unmarked) : 4.48
CC(=O)N1CCC(CC(CS(=O)(=O)c2ccc(OCc3cc(C)nc4ccccc34)cc2)N(O)C=O)CC1 (centres unmarked) : 6.35
O=C(NN1CCCCC1)c1ccc(Cn2ccc3ccc(C#CCc4ccccc4)cc3c2=O)cc1 : 5.64

A. Cc1cc(COc2ccc(S(=O)(=O)CC(CC3CCC4(CC3)OCCO4)N(O)C=O)cc2)c2ccccc2n1 (centres unmarked)
B. C=C1CCC(C(CS(=O)(=O)c2ccc(OCc3cc(C)nc(C)c3)cc2)N(O)C=O)CC1 (centres unmarked)
Exercise: Choose between A and B : whose measured pIC50 value is numerically larger? In your reply, give the label of the chosen option.
Key: A
(A: 5.96, B: 5.70)
